- experimental system: T1, EGF receptor (on A431 cells) (UniProt P00533 25-1210, limits assumed)
- T1 construct: whole, on cells; also called EGF receptors
- assay comment: competition flow cytometry on A431 cells against mAb-108 (7.5 nM)
Cut-off 3 x on IC50 relative to wild type scFv: below means T, at or above means F.

Here are 6 binders together with their reported answers.
binder | assigned category
pAcF-scFv-108-(S136) conjugated to 5K PEG (scFv, p-acetyl-phenylalanine (pAcF) in place of Ser136, conjugated to mono-functional hydroxylamine 5K PEG, also called Ser136pAcF-5K PEG) scFv: QVQLQQSGAELMKPGASVKISCKATGYTFSSYWIEWVKQRPGHGLEWIGEILPGSKKTNYNEKFKGKATFTADTSSNTAYMQFSSLTSEDSAVYYCARYYYRNDDYGMDYWGQGTSVTVSSGGGGSGGGGSGGGGXGGGGSEIHMTQTTSSLSASLGDRVTISCSASQDIRNYLNWYQQKPDGTVKLLIYYTSTLHSGVPSRFSGSGSGTDYSLTISNLEPEDIATYYCQQYSKIPYTFTGGTKLEIKRADAAEQKLISEEDLNSAVDHHHHHH | F
scFv-108 wild type (periplasmic, VH-(GGGGS)4-VL-myc-6xHis) (scFv, also called WT scFv) scFv: QVQLQQSGAELMKPGASVKISCKATGYTFSSYWIEWVKQRPGHGLEWIGEILPGSKKTNYNEKFKGKATFTADTSSNTAYMQFSSLTSEDSAVYYCARYYYRNDDYGMDYWGQGTSVTVSSGGGGSGGGGSGGGGSGGGGSEIHMTQTTSSLSASLGDRVTISCSASQDIRNYLNWYQQKPDGTVKLLIYYTSTLHSGVPSRFSGSGSGTDYSLTISNLEPEDIATYYCQQYSKIPYTFTGGTKLEIKRADAAEQKLISEEDLNSAVDHHHHHH | T
pAcF-scFv-108-(S131) conjugated to 5K PEG (scFv, p-acetyl-phenylalanine (pAcF) in place of Ser131, conjugated to mono-functional hydroxylamine 5K PEG, also called Ser131pAcF-5K PEG) scFv: QVQLQQSGAELMKPGASVKISCKATGYTFSSYWIEWVKQRPGHGLEWIGEILPGSKKTNYNEKFKGKATFTADTSSNTAYMQFSSLTSEDSAVYYCARYYYRNDDYGMDYWGQGTSVTVSSGGGGSGGGGXGGGGSGGGGSEIHMTQTTSSLSASLGDRVTISCSASQDIRNYLNWYQQKPDGTVKLLIYYTSTLHSGVPSRFSGSGSGTDYSLTISNLEPEDIATYYCQQYSKIPYTFTGGTKLEIKRADAAEQKLISEEDLNSAVDHHHHHH | F
pAcF-scFv-108-(L156) conjugated to 5K PEG (scFv, p-acetyl-phenylalanine (pAcF) in place of Leu156, conjugated to mono-functional hydroxylamine 5K PEG, also called Leu156pAcF-5K PEG) scFv: QVQLQQSGAELMKPGASVKISCKATGYTFSSYWIEWVKQRPGHGLEWIGEILPGSKKTNYNEKFKGKATFTADTSSNTAYMQFSSLTSEDSAVYYCARYYYRNDDYGMDYWGQGTSVTVSSGGGGSGGGGSGGGGSGGGGSEIHMTQTTSSLSASXGDRVTISCSASQDIRNYLNWYQQKPDGTVKLLIYYTSTLHSGVPSRFSGSGSGTDYSLTISNLEPEDIATYYCQQYSKIPYTFTGGTKLEIKRADAAEQKLISEEDLNSAVDHHHHHH | T
scFv-108 Tyr190pAcF (scFv, p-acetyl-phenylalanine (pAcF) in place of Tyr190, X stands for pAcF) scFv: QVQLQQSGAELMKPGASVKISCKATGYTFSSYWIEWVKQRPGHGLEWIGEILPGSKKTNYNEKFKGKATFTADTSSNTAYMQFSSLTSEDSAVYYCARYYYRNDDYGMDYWGQGTSVTVSSGGGGSGGGGSGGGGSGGGGSEIHMTQTTSSLSASLGDRVTISCSASQDIRNYLNWYQQKPDGTVKLLIXYTSTLHSGVPSRFSGSGSGTDYSLTISNLEPEDIATYYCQQYSKIPYTFTGGTKLEIKRADAAEQKLISEEDLNSAVDHHHHHH | T
scFv-108 Lys248pAcF (scFv, p-acetyl-phenylalanine (pAcF) in place of Lys248, X stands for pAcF) scFv: QVQLQQSGAELMKPGASVKISCKATGYTFSSYWIEWVKQRPGHGLEWIGEILPGSKKTNYNEKFKGKATFTADTSSNTAYMQFSSLTSEDSAVYYCARYYYRNDDYGMDYWGQGTSVTVSSGGGGSGGGGSGGGGSGGGGSEIHMTQTTSSLSASLGDRVTISCSASQDIRNYLNWYQQKPDGTVKLLIYYTSTLHSGVPSRFSGSGSGTDYSLTISNLEPEDIATYYCQQYSKIPYTFTGGTKLEIXRADAAEQKLISEEDLNSAVDHHHHHH | T

(Q) Item scFv-108 Ser193pAcF (scFv, p-acetyl-phenylalanine (pAcF) in place of Ser193, X stands for pAcF) scFv: QVQLQQSGAELMKPGASVKISCKATGYTFSSYWIEWVKQRPGHGLEWIGEILPGSKKTNYNEKFKGKATFTADTSSNTAYMQFSSLTSEDSAVYYCARYYYRNDDYGMDYWGQGTSVTVSSGGGGSGGGGSGGGGSGGGGSEIHMTQTTSSLSASLGDRVTISCSASQDIRNYLNWYQQKPDGTVKLLIYYTXTLHSGVPSRFSGSGSGTDYSLTISNLEPEDIATYYCQQYSKIPYTFTGGTKLEIKRADAAEQKLISEEDLNSAVDHHHHHH : IC50 relative to wild type scFv beneath 3 x, strictly?
(A) T
